Structures can show the parent of a compound that is named as a salt.
experimentalReadout: melting point

O=[N+]([O-])c1ccc2[nH]c(/C=C/c3ccoc3)nc2c1 | 230 to 233 °C
COc1ccc2[nH]c(C=Cc3ccc(OC)c(OC)c3)nc2c1 (as salt: hydrochloride) (hydrate or solvate) | 246 to 249 °C
COC(=O)c1ccc(Cn2c(C=Cc3ccc(OC)c(OC)c3)nc3c(OC)c(C)c(C)c(OC)c32)cc1 (hydrate or solvate) | 111 to 114 °C
COC(=O)c1ccc2[nH]c(/C=C/c3ccc(OC)c(OC)c3)nc2c1 | 185 to 188 °C
COc1ccc(/C=C/c2nc3cc([N+](=O)[O-])ccc3[nH]2)cc1OC | 223 to 225 °C

Record `COc1ccc(C=Cc2nc3c(OC)c(C)c(C)c(OC)c3[nH]2)cc1OC` , field melting point: 116 to 119 °C

Origin of values: patent US6444694B1
